The measured values listed here are drawn from PubChem BioAssay (NCI).

In this section, each of the compounds is paired with its reported growth inhibition.
# PROTOCOL: NCI Yeast Anticancer Drug Screen. Data for the mec2-1 strain (AID 157)
# RECORDED_CONDITIONS: S. cerevisiae mec2-1 strain, at 50.0 µM, hits give high values
The panel holds about 79,000 compounds, 15% with a hit somewhere; the sample as a whole holds those more often.
Write the value in % as a bare number.

Example entries begin here.
Cc1c([N+](=O)[O-])cc2c(c1[N+](=O)[O-])C(C(C)C)CCC2(C)C (stereo not drawn) = -25.2
CC(=O)OCC(=O)COC(C)=O = -6.35
O=C(NNc1ccccc1)/C(=C/c1ccc2c(c1)OCO2)NC(=O)c1ccccc1 = 9.5
CCCCCCCCCCCCCCCCN1c2ccccc2C(C)(C)C12C=Cc1cccc([N+](=O)[O-])c1O2 (stereo not drawn) = -0.6
NC(=O)/C=C/c1ccc([N+](=O)[O-])cc1 = -6.85
Fc1ccc(CC(F)F)cc1 = -6.2

Q: Need growth inhibition, item C/C(CCc1cnc2ccccc2c1)=N/NC(N)=O
Ans: 27.5

Q: Need growth inhibition, item COc1ccc(CCNC(=O)c2ccc(CSc3ccc(Cl)cc3)o2)cc1OC
Ans: 24.1

Q: Need growth inhibition, item Clc1cccc2c(SCCCCCSc3c4ccccc4nc4c(Cl)cccc34)c3ccccc3nc12
Ans: -8.9

Q: Need growth inhibition, item COC(=O)C1CC[N-]CC1.COC(=O)C1CC[N-]CC1.[Cl][Pt+2][Cl]
Ans: 6.9

Q: Need growth inhibition, item CCCCCCC/C=C\C=O
Ans: 16.9

Q: Need growth inhibition, item O=NN(CCCl)C(=O)N(C1CCCCC1)C1CCCCC1
Ans: -3.95

Q: Need growth inhibition, item COc1cc(/C=C/C(=O)O)cc(OC)c1OC
Ans: -2.1

Q: Need growth inhibition, item CCCCCCC1NN(C(C)=O)C(CCCCCC)NN1C(C)=O (stereo not drawn)
Ans: -4.1

Q: Need growth inhibition, item O=c1c(SCc2ccc(Br)cc2)c(SCc2ccc(Br)cc2)cnn1-c1ccccc1
Ans: 4.65

Q: Need growth inhibition, item Fc1ccc2c(c1)CC(CBr)O2 (stereo not drawn)
Ans: -8.5
